# Target: T1, human LIV-1 (human, UniProt Q13433 29-755)
# T1 construct: whole, on cells; also called H-LIV1
# T1 sequence (looked up): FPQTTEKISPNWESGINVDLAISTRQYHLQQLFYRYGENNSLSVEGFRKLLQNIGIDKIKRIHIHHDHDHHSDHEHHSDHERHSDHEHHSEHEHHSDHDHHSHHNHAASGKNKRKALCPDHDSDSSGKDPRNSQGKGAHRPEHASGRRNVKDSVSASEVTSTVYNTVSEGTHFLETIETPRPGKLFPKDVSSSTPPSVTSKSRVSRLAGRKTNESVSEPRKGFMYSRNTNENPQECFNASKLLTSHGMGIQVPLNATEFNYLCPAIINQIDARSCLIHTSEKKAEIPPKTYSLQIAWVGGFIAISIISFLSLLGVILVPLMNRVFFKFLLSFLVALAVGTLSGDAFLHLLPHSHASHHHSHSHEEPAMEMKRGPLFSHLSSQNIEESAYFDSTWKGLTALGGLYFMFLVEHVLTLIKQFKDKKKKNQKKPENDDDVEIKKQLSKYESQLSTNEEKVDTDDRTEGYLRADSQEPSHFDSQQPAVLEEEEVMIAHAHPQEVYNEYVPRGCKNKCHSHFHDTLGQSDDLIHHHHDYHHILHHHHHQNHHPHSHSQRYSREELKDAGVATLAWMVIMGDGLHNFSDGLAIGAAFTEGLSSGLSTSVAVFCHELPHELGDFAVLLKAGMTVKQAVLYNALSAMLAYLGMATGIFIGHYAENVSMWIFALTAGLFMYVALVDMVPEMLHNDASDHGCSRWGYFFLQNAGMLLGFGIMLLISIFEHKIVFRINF
# Run description: FACS, HEK293/H_LIV-1 cells
Quick reference for Top (MFI) among some binders
Write the answer as a number in MFI, unit excluded.

Binder: 99B3E8 (antibody, V domains shown, Tested as chimeric antibody) VH: EVQLQQSGTVLARPGTSVKMSCKASGYTFINYWMHWVRQRPGQGLEWIGAFYPGNSDTSYNQNFKDKAKLTAVTSTSTAYMEFSSLTNEDSAVYYCTRDFTAVPFFDYWGQGTTLTVSS VL: DVLMTQTPLSLPVSLGDQASISCRSSQSIVHSNGNTYLEWYLQKPGQSPKLLIYKVSNRFSGVPDRFSGSGSGTDFTLKISRVEAEDLGVYYCFQGSYVPLTFGVGTKLELK
Top (MFI): 12600
//
Binder: 293F10B6 (antibody, V domains shown, Tested as chimeric antibody) VH: QVTLKESGPGMLQPSQTLNLTCSFSGFSLNTSGMGVSWIRQPSGKGLEWLAHIFWDDDKRYNPSLKSRLTISKDVSSNQVFLKITSVDTADTATYFCARRARNNYPWFPYWGQGTLVTVSA VL: DIVLTQSPASLAVSLGQRATISCKASQSVDYDGDSYMNWYQQKPGQPPKLLIYAASNLDSGIPARFSGSGSGTDFTLNIHPMEDEDVATYYCQQSNGAPFTFGGGTKLEIK
Top (MFI): 8100

# next binder below
Incoming: // lookup Top (MFI) for 82C7C7 (antibody, V domains shown, Tested as chimeric antibody) VH: EVQLQQSGAELVKPGASIKLSCTPSGFNIKDTFIHWVKQRPEQGLEWIGRIDPANGNTRYDPKFQGKATITADTSSNTAYLQLISLTSEDTAVYYCAGGSISTVVPDYWGQGTTLTVSS VL: DVVVTQTPLSLPVSLGDQASISCRSSQSLVHNNGNTYLHWYLQKPGQSPKLLIYKVSNRFSGVPDRFSGSGSGTDFTLKISRVEAEDLGVYFCSQSTHVPYTFGGGTKLEIK
Outgoing: 12300
